B1: BTBD10 (parent)
chain: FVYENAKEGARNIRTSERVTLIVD

Variants of: B1
Assay: protein stability index of a GFP-peptide fusion (GPS, HEK-293T) (PSI 1-6); higher = more stable;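 note: lentivirally expressed fusions sorted by FACS into six bins by GFP to DsRed ratio, PSI derived from sequencing read proportions per bin multiplied by bin number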
Conditions: c terminus: a fixed tail appended
Quick reference: protein stability index of the listed items.
Write no unit; give the number alone.

Ask | Which value of protein stability index has been reported for Y3M in the records?
Reply | 2.2

Others:
Ask | May I ask what protein stability index has been recorded for E4N ?
Reply | 1.57

Ask | // lookup protein stability index for S16L
Reply | 1.39

Ask | Item V23W has what recorded protein stability index?
Reply | 1.4
